Reported pIC50 values for a set of molecules
Test system: HCT-116
Test: Inhibition of human HCT116 cell growth
Format: functional, cell-based
pIC50: −log10 of the molar value.

| compound.smiles | pIC50 |
| --- | --- |
| CC(C)C[C@H](NC(=O)[C@H](CC(=O)NCCC(COCc1ccccc1)COCc1ccccc1)NC(=O)c1cc(Cl)ccc1Cl)B1O[C@@H]2C[C@@H]3C[C@@H](C3(C)C)[C@]2(C)O1 | 6.85 |
| CNC(=O)C[C@H](NC(C)=O)C(=O)N[C@@H](CC(C)C)B1O[C@@H]2C[C@@H]3C[C@@H](C3(C)C)[C@]2(C)O1 | 5.60 |
| CC(=O)N[C@@H](CCC(=O)NCC(COCc1ccccc1)COCc1ccccc1)C(=O)N[C@@H](CC(C)C)B1O[C@@H]2C[C@@H]3C[C@@H](C3(C)C)[C@]2(C)O1 | 7.20 |
| CC(=O)N[C@@H](CCC(=O)NCCC(COCc1ccccc1)COCc1ccccc1)C(=O)N[C@@H](CC(C)C)B1O[C@@H]2C[C@@H]3C[C@@H](C3(C)C)[C@]2(C)O1 | 6.96 |
| CC(=O)N[C@@H](CC(=O)NCC(COCc1ccccc1)COCc1ccccc1)C(=O)N[C@@H](CC(C)C)B1O[C@@H]2C[C@@H]3C[C@@H](C3(C)C)[C@]2(C)O1 | 7.34 |

====

Let's look at some molecules and their measured pIC50.
Target: 26S proteasome
Test: Inhibition of chymotrypsin-like activity of human 20S proteasome using Suc-LLVY-AMC as substrate
Type: protein-complex assay
pIC50: −log10 of the molar value.
reported.property: pIC50

| molecule | observed |
| --- | --- |
| CC[C@H](C)[C@@H]1C(=O)O[C@H]1C(=O)N[C@H]1C[C@H]1C[C@H](NC(=O)[C@H](C)N)C(=O)O [BELACTOSIN A] | 5.85 |
| CC[C@H](C)[C@@H]1C(=O)O[C@H]1C(=O)N[C@H]1C[C@@H]1C[C@@H](CCc1ccccc1)NC(=O)[C@H](C)NC(=O)OCc1ccccc1 | 8.24 |
| CC(C)C[C@H](NC(=O)[C@H](CC(=O)NCCC(COCc1ccccc1)COCc1ccccc1)NC(=O)c1cnccn1)B1O[C@@H]2C[C@@H]3C[C@@H](C3(C)C)[C@]2(C)O1 | 8.15 |
| CC(=O)N[C@@H](CC(=O)NCC(COCc1ccccc1)COCc1ccccc1)C(=O)N[C@@H](CC(C)C)B1O[C@@H]2C[C@@H]3C[C@@H](C3(C)C)[C@]2(C)O1 | 8.41 |
| CC(=O)N[C@@H](CC(=O)NCCCCOCc1ccccc1)C(=O)N[C@@H](CC(C)C)B1O[C@@H]2C[C@@H]3C[C@@H](C3(C)C)[C@]2(C)O1 | 8.32 |

====

Target: 26S proteasome
Assay: Inhibition of trypsin-like activity of human 20S proteasome using Ac-RLR-AMC as substrate
Assay type: protein-complex assay
The following compounds are listed with their measured IC50 values.
reported.property: IC50 (µM)

| compound.smiles | comparison.sign | observed |
| --- | --- | --- |
| CC(C)C[C@H](NC(=O)[C@H](CC(=O)NCCC(COCc1ccccc1)COCc1ccccc1)NC(=O)c1cc(Cl)ccc1Cl)B1O[C@@H]2C[C@@H]3C[C@@H](C3(C)C)[C@]2(C)O1 | > | 10 |
| CNC(=O)C[C@H](NC(C)=O)C(=O)N[C@@H](CC(C)C)B1O[C@@H]2C[C@@H]3C[C@@H](C3(C)C)[C@]2(C)O1 | > | 10 |
| CC(C)C[C@H](NC(=O)[C@H](CC(=O)NCCC(COCc1ccccc1)COCc1ccccc1)NC(=O)c1cnccn1)B1O[C@@H]2C[C@@H]3C[C@@H](C3(C)C)[C@]2(C)O1 | = | 3.3 |
| CC(=O)N[C@@H](CCC(=O)NCC(COCc1ccccc1)COCc1ccccc1)C(=O)N[C@@H](CC(C)C)B1O[C@@H]2C[C@@H]3C[C@@H](C3(C)C)[C@]2(C)O1 | = | 2.4 |
| CC(=O)N[C@@H](CC(=O)NCCCC(COCc1ccccc1)COCc1ccccc1)C(=O)N[C@@H](CC(C)C)B1O[C@@H]2C[C@@H]3C[C@@H](C3(C)C)[C@]2(C)O1 | = | 2.7 |
| CC(=O)N[C@@H](CCC(=O)NCCCC(COCc1ccccc1)COCc1ccccc1)C(=O)N[C@@H](CC(C)C)B1O[C@@H]2C[C@@H]3C[C@@H](C3(C)C)[C@]2(C)O1 | = | 3 |
| CC(=O)N[C@@H](CC(=O)NCCCCOCc1ccccc1)C(=O)N[C@@H](CC(C)C)B1O[C@@H]2C[C@@H]3C[C@@H](C3(C)C)[C@]2(C)O1 | = | 2.17 |
| CC(=O)N[C@@H](CCC(=O)NCCC(COCc1ccccc1)COCc1ccccc1)C(=O)N[C@@H](CC(C)C)B1O[C@@H]2C[C@@H]3C[C@@H](C3(C)C)[C@]2(C)O1 | = | 2.5 |
| CC(C)C[C@H](NC(=O)[C@H](CC(=O)NCCC(COCc1ccccc1)COCc1ccccc1)NC(=O)c1cccc(-c2ccccc2)n1)B1O[C@@H]2C[C@@H]3C[C@@H](C3(C)C)[C@]2(C)O1 | > | 10 |
